TARGET_UNDER_TEST: tau (Homo sapiens, UniProt P10636)
Sequence (P10636 623-695 limits assumed): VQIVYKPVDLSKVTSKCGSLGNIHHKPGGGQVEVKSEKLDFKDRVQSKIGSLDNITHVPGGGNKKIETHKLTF
ASSAY_NAME: MCE Phenols Library screening, tau biosensor cell seeding assay (AvZ)
Format: cell-based
CONDITION_DESCRIPTION: Z score, replicate 2
REPORTED_PROPERTY: Z Repl 2
Just the number, please, no unit after it.

Please review the entries below; each comes with its answer.
COc1cc(C[C@@H](CO)[C@H](CO)Cc2ccc(O)c(OC)c2)ccc1O [(+)-Secoisolariciresinol] :: 1.018
CC[C@@]1(O)C(=O)OCc2c1cc1n(c2=O)Cc2cc3cc(O)ccc3nc2-1 [(S)-10-Hydroxycamptothecin] :: 1.796
COc1cc(/C=C/c2ccc(O)cc2)cc(OC)c1 :: -0.298

Here's the next entry for you.
Please report the measured Z Repl 2 for "CCCCCCCCCCCCCCCc1cccc(O)c1C(=O)O"
-0.324
